B1: FBXO3 (parent)
chain: FIDTYSDVGRYIDHYAAIKKAWDD

Variants of: B1
Assay: protein stability index of a GFP-peptide fusion (GPS, HEK-293T) (PSI 1-6); higher = more stable;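 further: lentivirally expressed fusions sorted by FACS into six bins by GFP to DsRed ratio, PSI derived from sequencing read proportions per bin multiplied by bin number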
Conditions: c terminus: a fixed tail appended
TEST_READOUT: protein stability index

Example results:
A21F: 1.96
A21N: 2
W22A: 2.05

# per-item lookup of protein stability index; items listed below
1. Y15V
2. A17R

Reply:
1: 1.99; 2: 1.98

# per-item lookup of protein stability index; items listed below
1. K19V
2. A17W

Reply:
1.98
2
